# System: Enterovirus A71
# Method notes: inhibition concentration required against human enterovirus 71 (2231) genotype C was determined by plaque reduction assay
# Format: functional, organism-based
# Condition set: Enterovirus A
Recorded endpoint: IC50 (nM)
Answer format: numeric, nM implied, no suffix.

What measured IC50 goes with O=C1N(CCCCCOc2ccc(-c3ccc(Cl)cc3)cc2)CCN1c1ccncc1 ?
80

* * *

# System: Enterovirus A71
# Method notes: inhibition concentration required against human enterovirus 71 (1743) genotype B was determined by plaque reduction assay
# Type: functional, organism-based
# Condition set: Enterovirus A
Recorded endpoint: IC50 (nM)
Reply with just the number (in nM).

Fill blank: measured IC50 of the compound O=C1N(CCCCCOc2ccc(-c3ccc(Cl)cc3)cc2)CCN1c1ccncc1 is ____.
90
